Source of measurements: ChEMBL document CHEMBL5727849

# target-under-test: fMet-Leu-Phe receptor (Homo sapiens)
# Sequence (P21462 whole entry): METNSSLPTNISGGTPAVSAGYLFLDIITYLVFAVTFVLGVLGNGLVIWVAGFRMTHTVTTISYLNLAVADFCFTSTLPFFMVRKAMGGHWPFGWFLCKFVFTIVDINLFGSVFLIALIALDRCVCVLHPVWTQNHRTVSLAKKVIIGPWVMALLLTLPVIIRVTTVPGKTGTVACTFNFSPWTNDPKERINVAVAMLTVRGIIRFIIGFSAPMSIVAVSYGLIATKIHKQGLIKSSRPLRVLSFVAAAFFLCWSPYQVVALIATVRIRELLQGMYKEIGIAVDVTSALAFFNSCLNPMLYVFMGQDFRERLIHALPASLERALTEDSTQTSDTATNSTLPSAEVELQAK
# run-description: cAMP Assay: FPR2 and FPR1 Cyclic Adenosine Monophosphate (cAMP) Assays. A mixture of forskolin (5 μM final for FPR2 or 10 μM final for FPR1) and IBMX (200 μM final) were added to 384-well Proxiplates (Perkin-Elmer) pre-dotted with test compounds in DMSO (1% final) at final concentrations in the range of 0.020 nM to 100 μM. Chinese Hamster Ovary cells (CHO) overexpressing human FPR1 or human FPR2 receptors were cultured in F-12 (Ham's) medium supplemented with 10% qualified FBS, 250 μg/ml zeocin and 300 μg/ml hygromycin (Life Technologies). Reactions were initiated by adding 2,000 human FPR2 cells per well or 4,000 human FPR1 cells per well in Dulbecco's PBS (with calcium and magnesium) (Life Technologies) supplemented with 0.1% BSA (Perkin-Elmer). The reaction mixtures were incubated for 30 min at room temperature. The level of intracellular cAMP was determined using the HTRF HiRange cAMP assay reagent kit (Cisbio) according to manufacturer's instruction. Solutions of cryptate conjugated anti-cAMP and d2 flurorophore-labelled cAMP were made in a supplied lysis buffer separately. Upon completion of the reaction, the cells were lysed with equal volume of the d2-cAMP solution and anti-cAMP solution. After a 1-h room temperature incubation, time-resolved fluorescence intensity was measured using the Envision (Perkin-Elmer) at 400 nm excitation and dual emission at 590 nm and 665 nm.
readout-kind: pEC50
Keep it numeric: pEC50 is minus log10 of the concentration in mol/L.

NC(=O)c1ccccc1-c1ccc(N2CCC[C@@H](NC(=O)Nc3ccc(F)c(F)c3)C2=O)cc1	5.77

We now examine a further compound.
Can you share its pEC50? I mean this compound: O=C(Nc1ccc(Cl)cc1)N[C@@H]1CCCN(c2ccc(-c3c(Cl)cccc3Cl)cc2)C1=O
7.85
